Molecular target: CS4 on an ETEC strain (enterotoxigenic Escherichia coli)
Assay: cell-based or functional assay
Measured MRHA IC100, listed per entry for reference.
Write the answer as a number in µg/mL, unit excluded.

A selection of reference data follows.
Binder	MRHA IC100 (µg/mL)
VHH antibody 1D7 (monomeric nanobody) (VHH) VHH: EVQLVESGGGLVQAGGSLTLSCAASERTFSYYVMAWFRQAPGKEREFVAGISMSGDSTKYADSVKGRFTISRDNAENTGYLQMNGLKPEDTAVYYCAADRDIRGNFRSWGRGTQVTVSS	200
VHH antibody 2R23 (monomeric nanobody) (VHH, Yeast-library clone, expressed in the E. coli periplasm) VHH: QVQLQESGGGLVQAGGSLRLSCAASGYIFWSYGYMGWYRQAPGKERELVATISRGGTTNYADSVKGRFTISRDNAKNTVYLQMNSLKPEDTAVYYCAAGRYAFGYFKYWGQGTQVTVSS	25
VHH antibody 1H4 (monomeric nanobody) (VHH) VHH: EVQLVESGGGLVQAGGSLRLSCAASSRTFNHYNIGWFRQAPGKEREFAAAITWNGRSTLYADSVKGRFTISRDNAKNTVYLQMNSLKPEDTAVYYCATLTTWEHKWEYNSQGQGTQVTVSS	25

Turning to the following binder.
# input Quick check: MRHA IC100 of VHH antibody 2R215 (monomeric nanobody) (VHH, Yeast-library clone, expressed in the E. coli periplasm and purified by Ni-NTA; also called monomeric 2R215; monomeric VHH 2R215) VHH: QVQLQESGGGLVQAGGSLRLSCAASGNIFQDAEMGWYRQAPGKEREFVATIAYGGNTNYADSVKGRFTISRDNAKNTVYLQMNSLKPEDTAVYYCAVYTGVYYDRTTGGYVAFEYWGQGTQVTVSS ?
# output 100
